B1: mRNA-splicing (parent)
chain: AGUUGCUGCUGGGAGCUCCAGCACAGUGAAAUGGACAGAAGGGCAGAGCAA

Variants of: B1
Assay: exon inclusion enrichment index; higher = more inclusion; WT1 exon 5 minigene, HEK293
Give 1 when the value for exon inclusion enrichment index is at least 0.2. Give 0 when it is less.

INSERT INTO assay_data (mutation_list, label_value) VALUES
  ('G5A C6U U7A G8U C9A A29G A30G', 0),
  ('C6A U7A C9A U10A G46A A47G', 1),
  ('C6A U7C C9A U10C G15A C16G', 1),
  ('G5A C6U U7A G8U C9A U17C C18U', 0),
  ('G5C C6A U7C G8A U10A G26U U27G', 1);

Then this variant:
Check the entry G5A C6G U7G C9A U17G C18U : does exon inclusion enrichment index equal or exceed 0.2? 0

All figures here come from the RNAGym collection of RNA variant scans (doi:10.1101/gr.219683.116).
